# assay explanation: clinical
# protocol conditions: human, in vivo, 10 mg
measure: Tmax (h)
Quick note: give the figure in h, leave out the unit.

Which Tmax value is on record for CC(C)c1nc(N(C)S(C)(=O)=O)nc(-c2ccc(F)cc2)c1/C=C/[C@@H](O)C[C@@H](O)CC(=O)O ?
4.01

* * *

# system tested: OAT1 (Homo sapiens)
# Sequence (Q4U2R8 whole entry): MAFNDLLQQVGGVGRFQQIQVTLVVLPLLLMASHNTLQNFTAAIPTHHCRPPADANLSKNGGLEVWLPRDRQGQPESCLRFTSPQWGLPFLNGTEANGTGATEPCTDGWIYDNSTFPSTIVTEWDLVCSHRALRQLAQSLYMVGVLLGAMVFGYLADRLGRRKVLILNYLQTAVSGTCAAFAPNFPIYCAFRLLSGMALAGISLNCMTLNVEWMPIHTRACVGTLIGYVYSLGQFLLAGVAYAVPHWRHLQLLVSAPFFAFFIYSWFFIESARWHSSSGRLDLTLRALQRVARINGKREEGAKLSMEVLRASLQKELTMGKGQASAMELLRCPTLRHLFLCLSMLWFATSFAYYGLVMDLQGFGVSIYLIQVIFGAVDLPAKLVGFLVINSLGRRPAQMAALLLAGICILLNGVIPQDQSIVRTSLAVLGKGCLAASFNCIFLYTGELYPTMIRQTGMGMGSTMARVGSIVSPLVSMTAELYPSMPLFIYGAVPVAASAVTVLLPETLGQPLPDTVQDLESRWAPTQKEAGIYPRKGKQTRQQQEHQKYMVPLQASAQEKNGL
# assay explanation: OAT1-mediated 3H-PAH uptake inhibition in transfected HEK293 cells
# Type: cell-based
# Design: expressed in transfected cells; host or cells: HEK293
# protocol conditions: renal OAT1; PAH 0.5 µM as substrate, 4 min; HEK293; mean ± SD, n = 3
# Protocol: Sources of human embryonic kidney (HEK) 293 cells expressing individual transfected human solute carriers (SLC), test substrates, and cell culture reagents, as well as detailed cell culture methods, incubations, and sample processing, have been described previously. […] At the end of the uptake and inhibition experiment, cellular accumulation of ^3H-PAH and ^3H-E3S was determined using liquid scintillation counting as previously described. […]
measure: IC50 (µM)
Quick note: give the figure in µM, leave out the unit.

Which IC50 value is on record for C=CC(=O)N1C[C@H](Nc2ncnc3[nH]ccc23)CC[C@@H]1C ?
156
